This collection of values is drawn from patent US20230023009A1.

Tested on: SW1573
Assay: Cell proliferation assay panel (Cell Titer-Glo, 72 hr)
Assay type: cell-based
Settings: Homo sapiens
measured-quantity: IC50

Q: So what's the measured IC50 for this one? C=C(F)C(=O)N1CCN(c2nc(OC[C@@H]3CCCN3C)nc3c2CO[C@@H](c2cccc4cccc(Cl)c24)C3)C[C@@H]1CC#N (single isomer, unassigned) [43 (Isomer B)]
Ans: ≥ 3000 nM

###

Target: KRAS G12C protein (Homo sapiens, UniProt P01116, G12C)
Sequence (P01116 1-188 isoform P01116-2 G12C): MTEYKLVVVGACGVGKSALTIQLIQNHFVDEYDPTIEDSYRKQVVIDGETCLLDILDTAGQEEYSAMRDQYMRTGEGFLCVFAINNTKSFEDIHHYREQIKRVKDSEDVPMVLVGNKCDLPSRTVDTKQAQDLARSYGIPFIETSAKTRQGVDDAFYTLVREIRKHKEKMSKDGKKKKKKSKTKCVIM
Assay: Nucleotide exchange assay (Method III, KRAS G12C/Raf-RBD TR-FRET)
Settings: SOS1-mediated exchange of GDP for GTP, 18 hr compound incubation
measured-quantity: IC50

[
  {
    "compound": "C=C(F)C(=O)N1CCN(c2nc(OC3CN(C)CC3C)nc3c2COC(c2cccc4cccc(Cl)c24)C3)C[C@@H]1CC#N (single isomer, unassigned) [272 (Isomer A)]",
    "IC50": "≥ 3 µM"
  },
  {
    "compound": "C=C(F)C(=O)N1CCN(c2nc(OC[C@@H]3CCCN3C)nc3c2OCC(c2cccc4cccc(Cl)c24)O3)[C@@H](C)C1 (single isomer, unassigned) [136 (Isomer A)]",
    "IC50": "≥ 3 µM"
  },
  {
    "compound": "C=C(F)C(=O)N1CCN(c2nc(OCC34CCCN3CCC4)nc3c2COC(c2cccc4cccc(Cl)c24)C3)C[C@@H]1CC#N (single isomer, unassigned) [266 (Isomer A)]",
    "IC50": "0.3 to 3 µM"
  },
  {
    "compound": "C=C(F)C(=O)N1CCN(c2nc(NC3CCN(S(C)(=O)=O)CC3)nc3c2COC(c2cccc4cccc(Cl)c24)C3)C[C@@H]1CC#N (single isomer, unassigned) [231 (Isomer A)]",
    "IC50": "≥ 3 µM"
  },
  {
    "compound": "C=C(F)C(=O)N1CCN(c2nc(OC3CCN(C)CC3)nc3c2COC(c2cccc4cccc(Cl)c24)C3)C[C@@H]1CC#N (single isomer, unassigned) [234 (Isomer A)]",
    "IC50": "≥ 3 µM"
  }
]

Please turn your attention to the following entry.
Q: What value of IC50 has been reported for the following compound? C=C(F)C(=O)N1CCN(c2nc(OC3CN(C)CC3C)nc3c2COC(c2cccc4cccc(Cl)c24)C3)C[C@@H]1CC#N (single isomer, unassigned) [272 (Isomer B)]
Ans: ≥ 3 µM
